test: Lipophilicity, log P of the compound; assay type: physicochemical; conditions: octanol/water
The label yes is reserved for logP strictly under 0.2; no covers values equal to or above it.

- compound: "COc1cc(C2=NOC(CO[C@@H]3O[C@H](CSc4ncn[nH]4)[C@H]4OC5(CCCC5)O[C@@H]34)C2)cc(OC)c1OC (mixture of isomers)"
  label value: "no"
- compound: "C=CCO[C@@H]1O[C@H](CSc2ncn[nH]2)[C@H]2OC3(CCCC3)O[C@@H]12"
  label value: "no"
- compound: "COc1cc(C2=NOC(CO[C@@H]3O[C@H](Cn4c(SCc5ccccc5)nnc4-c4ccc(Cl)cc4)[C@H]4OC5(CCCC5)O[C@@H]34)C2)cc(OC)c1OC (mixture of isomers)"
  label value: "no"
- compound: "C=CCO[C@@H]1O[C@H](Cn2c(-c3ccc(Cl)cc3)n[nH]c2=S)[C@@H](O)[C@H]1O"
  label value: "yes"
- compound: "COc1cc(C2=NOC(CO[C@@H]3O[C@H](CSc4ncn[nH]4)[C@@H](O)[C@H]3O)C2)cc(OC)c1OC (mixture of isomers)"
  label value: "yes"
- compound: "COc1cc(C2=NOC(CO[C@@H]3O[C@H](Cn4c(SCc5ccccc5)nnc4-c4ccc(Cl)cc4)[C@@H](O)[C@H]3O)C2)cc(OC)c1OC (mixture of isomers)"
  label value: "no"

These entries and their values trace back to ChEMBL document CHEMBL1926633.
